# assayText: logP (HPLC-MS)
# Assay type: physicochemical
# assayContext: HPLC, reversed-phase column (C18), acidic range pH 2.7, acetonitrile (0.1% formic acid)/water gradient, 43° C., calibration with unbranched alkan-2-ones
log p values, listed per item
readout: log p

- compound: "CCn1c(C(=O)NC(c2cccc(C(F)(F)F)c2)C(F)(F)F)cc2cc(C(=O)NC3(C#N)CCC3)c(Cl)cc21 (centres unmarked)"
  recordedMeasurement: 4.09
- compound: "Cn1c(C(=O)NC(c2ccc(F)c(C(F)(F)F)c2)C(F)(F)F)cc2cc(C(=O)NC3CC3)c(Cl)cc21 (centres unmarked)"
  recordedMeasurement: 3.70
- compound: "Cn1c(C(=O)NC(c2ccc(F)c(C(F)(F)F)c2)C(F)(F)F)cc2cc(C(=O)NC3(C#N)CC3)c(Cl)cc21 (centres unmarked)"
  recordedMeasurement: 3.52
- compound: "Cn1c(C(=O)NC(c2cccc(Cl)c2)C(F)(F)F)cc2cc(C(=O)NC3(C#N)CC3)c(Cl)cc21 (centres unmarked)"
  recordedMeasurement: 3.31
- compound: "C#CC1(NC(=O)c2cc3cc(C(=O)NC(c4cccc(C(F)(F)F)c4)C(F)(F)F)n(CC)c3cc2Cl)CCC1 (centres unmarked)"
  recordedMeasurement: 4.20
- compound: "C#CCn1c(C(=O)NC(c2ccc(F)c(Cl)c2)C(F)(F)F)cc2cc(C(=O)NC3(C#N)CC3)c(Cl)cc21 (centres unmarked)"
  recordedMeasurement: 3.41
- compound: "CCn1c(C(=O)NC(c2cc(Cl)cc(Cl)c2)C(F)(F)F)cc2cc(C(=O)NC3(C#N)CC3)c(C)cc21 (centres unmarked)"
  recordedMeasurement: 4.09
- compound: "C#CCn1c(C(=O)NC(c2cccc(Br)c2)C(F)(F)F)cc2cc(C(=O)NC3CC3)c(Cl)cc21 (centres unmarked)"
  recordedMeasurement: 3.44
- compound: "Cn1c(C(=O)NC(c2ccc(F)c(Br)c2)C(F)(F)F)cc2cc(C(=O)NC3(C#N)CC3)c(Cl)cc21 (centres unmarked)"
  recordedMeasurement: 3.44
- compound: "CCn1c(C(=O)NC(c2cccc(C(F)(F)F)c2)C(F)(F)F)cc2cc(C(=O)NCCC#N)c(Cl)cc21 (centres unmarked)"
  recordedMeasurement: 3.53
- compound: "CCC(=O)NCc1cc2cc(C(=O)NC(c3cccc(C(F)(F)F)c3)C(F)(F)F)n(CC)c2cc1Cl (centres unmarked)"
  recordedMeasurement: 4.06
- compound: "CCn1c(C(=O)NC(c2cccc(C(F)(F)F)c2)C(F)(F)F)cc2cc(C(=O)NC(C#N)(CC)CC)c(Cl)cc21 (centres unmarked)"
  recordedMeasurement: 4.41
- compound: "CCn1c(C(=O)NC(c2ccc(F)c(C(F)(F)F)c2)C(F)(F)F)cc2cc(C(=O)NC3(C#N)CC3)c(C)cc21 (centres unmarked)"
  recordedMeasurement: 3.77
- compound: "C#CCn1c(C(=O)NC(c2ccc(F)c(Br)c2)C(F)(F)F)cc2cc(C(=O)NC3(C#N)CC3)c(Cl)cc21 (centres unmarked)"
  recordedMeasurement: 3.57
- compound: "CCn1c(C(=O)NC(c2cccc(C(F)(F)F)c2)C(F)(F)F)cc2cc(C(=O)NC(C#N)C(C)C)c(Cl)cc21 (centres unmarked)"
  recordedMeasurement: 4.37
- compound: "CCn1c(C(=O)NC(c2cccc(C(F)(F)F)c2)C(F)(F)F)cc2cc(C(=O)NC3(C#N)CC3)c(C)cc21 (centres unmarked)"
  recordedMeasurement: 3.75
- compound: "CCn1c(C(=O)NC(c2cccc(C(F)(F)F)c2)C(F)(F)F)cc2cc(C(=O)NC3(C(F)(F)F)CC3)c(Cl)cc21 (centres unmarked)"
  recordedMeasurement: 4.30
- compound: "CCn1c(C(=O)NC(c2ccc(F)c(Br)c2)C(F)(F)F)cc2cc(C(=O)NC3(C#N)CC3)c(Cl)cc21 (centres unmarked)"
  recordedMeasurement: 3.76
- compound: "C#CCn1c(C(=O)NC(c2ccc(F)c(Cl)c2)C(F)(F)F)cc2cc(C(=O)NC3CC3)c(Cl)cc21 (centres unmarked)"
  recordedMeasurement: 3.57
- compound: "C#CCn1c(C(=O)NC(c2cc(Cl)cc(Cl)c2)C(F)(F)F)cc2cc(C(=O)NC3(C#N)CC3)c(Cl)cc21 (centres unmarked)"
  recordedMeasurement: 3.87
- compound: "CCn1c(C(=O)NC(c2ccc(F)c(Cl)c2)C(F)(F)F)cc2cc(C(=O)NC3CC3)c(C)cc21 (centres unmarked)"
  recordedMeasurement: 3.65
- compound: "CCn1c(C(=O)NC(c2ccc(F)c(Br)c2)C(F)(F)F)cc2cc(C(=O)NC3CC3)c(C)cc21 (centres unmarked)"
  recordedMeasurement: 3.70
- compound: "C#CCn1c(C(=O)NC(c2cc(Cl)c(Cl)c(Cl)c2)C(F)(F)F)cc2cc(C(=O)NC3(C#N)CC3)c(Cl)cc21 (centres unmarked)"
  recordedMeasurement: 4.24
- compound: "CCNC(=O)c1cc2cc(C(=O)NC(c3ccc(F)c(C(F)(F)F)c3)C(F)(F)F)n(CC)c2cc1Cl (centres unmarked)"
  recordedMeasurement: 3.91
- compound: "CCn1c(C(=O)NC(c2ccc(F)c(C(F)(F)F)c2)C(F)(F)F)nc2cc(C(=O)NC3CC3)c(Cl)cc21 (centres unmarked)"
  recordedMeasurement: 3.71
- compound: "CCn1c(C(=O)NC(c2cccc(C(F)(F)F)c2)C(F)(F)F)cc2cc(C(=O)NC(CF)CF)c(Cl)cc21 (centres unmarked)"
  recordedMeasurement: 3.86
- compound: "Cc1cc2c(cc1C(=O)NC1(C#N)CC1)cc(C(=O)NC(c1cccc(C(F)(F)F)c1)C(F)(F)F)n2C (centres unmarked)"
  recordedMeasurement: 3.49
- compound: "C#CCn1c(C(=O)NC(c2cccc(Br)c2)C(F)(F)F)cc2cc(C(=O)NC3(C#N)CC3)c(Cl)cc21 (centres unmarked)"
  recordedMeasurement: 3.48
- compound: "CCOC(=O)C1(NC(=O)c2cc3cc(C(=O)NC(c4cccc(C(F)(F)F)c4)C(F)(F)F)n(CC)c3cc2Cl)CC1 (centres unmarked)"
  recordedMeasurement: 3.99
